Target: IL-4 (Homo sapiens, UniProt P05112)
Construct: purchased Acros Biosystems IL4-H4218; host or cells: HEK-293
Sequence (P05112 25-153): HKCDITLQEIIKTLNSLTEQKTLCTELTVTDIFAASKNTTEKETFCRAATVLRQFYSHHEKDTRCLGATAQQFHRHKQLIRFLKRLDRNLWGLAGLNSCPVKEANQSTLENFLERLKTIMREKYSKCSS
Experiment: HEK-Blue IL-4/IL-13 cell-based reporter (SEAP) IL-4 inhibition assay
Conditions: 10 uM; percent activity in HEK-Blue IL-4/IL-13; in %
Would you please tag the item T when its Activity at 10 uM is 20 or above, and F when it is below?

IN: # check: Activity at 10 uM of COc1ccc(-c2cc(C3CCCOC3)c(C#N)c(=O)[nH]2)cc1 (stereo not drawn) [Compound 36] is greater than or equal to 20
OUT: T

IN: # check: Activity at 10 uM of Cc1ccc(-c2cc(-c3ccc(F)cc3)nc(N)c2C#N)o1 [Compound 9] is greater than or equal to 20
OUT: T

IN: # check: Activity at 10 uM of COc1ccc(-c2cc(-c3ccc(O)c(OC)c3)c(C#N)c(=O)[nH]2)cc1 [Compound 45] is greater than or equal to 20
OUT: F

IN: # check: Activity at 10 uM of N#Cc1c(-c2cccc(O)c2)cc(-c2cc(F)c(F)c(F)c2)[nH]c1=O [Compound 59] is greater than or equal to 20
OUT: T

IN: # check: Activity at 10 uM of COc1ccc(-c2cc(-c3ccc(OC)c(O)c3)c(C#N)c(=O)[nH]2)cc1 [Compound 46] is greater than or equal to 20
OUT: F
